// cross-source set; read-out = IC50; system = Aurora kinase B (Homo sapiens, UniProt Q96GD4)
Label key: fulfilled means IC50 under 500 nM; not fulfilled means IC50 of 500 nM or more.

Sample answers from the record:
- Molecule: "NC(=O)C(=C1Nc2ccccc2S1)c1ncc(C(=O)O)c(C(F)(F)F)n1 (single isomer, unassigned)"
  Answer Label: "fulfilled"
- Molecule: "Cn1cc(Nc2ncc(Cl)c(N[C@@H]3COC4C3OC[C@@H]4NS(=O)(=O)CC3CCC3)n2)cn1 (stereo partly shown)"
  Answer Label: "fulfilled"
- Molecule: "O=C(c1cccc(Cl)c1Cl)N1CCN(Cc2cccc(Nc3ncc(Cl)s3)n2)CC1"
  Answer Label: "fulfilled"

Confirm or reject: IC50 of COc1cc(C(N)=O)c2ncnc(N[C@H](CN3CCC3)c3ccc(F)c(C(F)(F)F)c3)c2c1 lies strictly below 500 nM
fulfilled

Confirm or reject: IC50 of O=C(c1cccc(Br)c1)N1CCN(Cc2cccc(Nc3ncns3)n2)CC1 lies strictly below 500 nM
not fulfilled

Confirm or reject: IC50 of Cc1nc(-c2cc(CN3CCN(C(=O)c4cccc(Cl)c4F)CC3)nc(Nc3nccs3)c2)no1 lies strictly below 500 nM
not fulfilled

Confirm or reject: IC50 of NC(=O)c1cccc2c(N[C@H](CN3CCC3)c3cccc(Cl)c3)ncnc12 lies strictly below 500 nM
fulfilled

Confirm or reject: IC50 of NC(=O)c1cccc2c(N[C@H](CN3CC(F)(F)C3)c3ccc(Cl)cc3)ncnc12 lies strictly below 500 nM
fulfilled

Confirm or reject: IC50 of N#Cc1ccccc1C(=O)N1CCN(Cc2cccc(Nc3ncc(Cl)s3)n2)CC1 lies strictly below 500 nM
fulfilled

Confirm or reject: IC50 of O=C(c1cccc(Cl)c1Cl)N1CCN(Cc2cccc(Nc3cc[nH]n3)n2)CC1 lies strictly below 500 nM
not fulfilled

---

// cross-source set; read-out = IC50; system = Aurora kinase B (Homo sapiens)

Check out these entries, answers already filled in.
- Molecule: "N#Cc1ccc2c(c1)C(=Cc1ccc3c(/C=C/c4ccncc4)n[nH]c3c1)C(=O)N2 (mixture of isomers)"
  Assayed System: "Aurora kinase B (Homo sapiens)"
  Measurement: "< 5 µM"
- Molecule: "CN1CCOc2ccc(-c3n[nH]c4ccc(NC(=O)C(c5ccsc5)N5CCCC5)cc34)cc2C1 (stereo not shown)"
  Assayed System: "Aurora kinase B (Homo sapiens)"
  Measurement: "≤ 5 µM"
- Molecule: "CN(C)CCNC(=O)c1cc2c(Nc3ccc(NC(=O)c4ccccc4)cc3)ncnc2[nH]c1=O"
  Assayed System: "Aurora kinase B (Homo sapiens)"
  Measurement: "0.601 to 1 µM"

Let's switch to this molecule now.
IC50 for O=CN1CCC(Oc2ccc(-c3n[nH]c4ccc(C(=O)NC(c5ccccc5F)C5CC5)cc34)cc2)CC1 (stereo not shown) ?
≤ 5 µM

---

// cross-source set; read-out = IC50; system = Aurora kinase B (Homo sapiens, UniProt Q96GD4)

- Molecule: "CC(O)Cn1cc(Nc2ncc(Cl)c(NC3CC4CN(S(=O)(=O)NC5CC5)CC4C3)n2)cn1 (stereo not shown)"
  IC50: "0.6 nM"
- Molecule: "Clc1ccc(-c2nnc(Nc3ccc(Sc4ncnn5cccc45)cc3)c3ccccc23)cc1"
  IC50: "< 100 nM"
- Molecule: "Nc1cc2c(Nc3ccc(NC(=O)c4ccc(F)cc4C(F)(F)F)cc3)ccnc2[nH]c1=O"
  IC50: "1 to 300 nM"

Aurora kinase B (Homo sapiens, UniProt Q96GD4) / IC50 / O=C1Nc2ccccc2/C1=C\c1ccc2c(/C=C/c3cccnc3)n[nH]c2c1 : value?
< 5000 nM

Aurora kinase B (Homo sapiens, UniProt Q96GD4) / IC50 / COc1cc2c(Oc3ccc(NC(=O)C4CC4)cc3)ccnc2cc1OCC[C@H](N)C(=O)OC1CCCC1 : value?
> 5000 nM

Aurora kinase B (Homo sapiens, UniProt Q96GD4) / IC50 / Cn1ccc(C(=O)N2CCN(Cc3cccc(Nc4ncc(Cl)s4)n3)CC2)n1 : value?
920 nM

Aurora kinase B (Homo sapiens, UniProt Q96GD4) / IC50 / CC(=O)c1cccc(-c2nc(Nc3cc(C)[nH]n3)cc(N3CCN(C)CC3)n2)c1 : value?
≤ 1000 nM
